# assayed-system: GPR139 (Homo sapiens)
# Sequence (Q6DWJ6 whole entry): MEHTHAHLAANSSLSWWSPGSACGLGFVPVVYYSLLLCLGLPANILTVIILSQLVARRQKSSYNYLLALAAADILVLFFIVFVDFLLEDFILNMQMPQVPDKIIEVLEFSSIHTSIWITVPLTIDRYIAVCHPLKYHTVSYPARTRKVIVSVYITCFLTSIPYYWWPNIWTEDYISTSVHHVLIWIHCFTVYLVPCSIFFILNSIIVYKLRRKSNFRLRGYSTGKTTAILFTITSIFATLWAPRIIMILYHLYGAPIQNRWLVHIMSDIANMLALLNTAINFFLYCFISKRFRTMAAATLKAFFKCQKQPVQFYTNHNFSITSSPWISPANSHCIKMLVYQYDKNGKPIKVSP
# method-summary: GPR139 Agonist titration / agonist counterscreen assay (calcium detection, HEK-GPR139 cells)
# Assay type: cell-based
# Design: expressed in transfected cells; host or cells: HEK Aequorin cells, Maxcyte transient transfection
# particulars: GPR139 Agonist Activity; based on logD
parameter-measured: Lipophilic Efficiency (logD)

molecule	parameter-measured	endpoint-result
O=C(CCc1nc2cccnc2n1Cc1cccs1)NCCc1ccccc1	Lipophilic Efficiency (logD)	4.54
CC1C(CC(=O)NCC(=O)CCC2=Cc3ccccc3C2)=Nc2ccccc21 (stereo not shown)	Lipophilic Efficiency (logD)	4.52
C=C(CC1N=CC2=C1c1ccccc1CC2)NCc1ccc(C)cc1 (stereo not shown)	Lipophilic Efficiency (logD)	4.02

[a] Cc1ccc(OCC(=O)NNC(=O)CN(C)S(=O)(=O)c2ccc(C)cc2)cc1
[b] COc1ccccc1-c1nnc(NC(=O)Cc2ccc(C)cc2C)o1
Return label of the item with the larger Lipophilic Efficiency (logD). Candidates: a , b . Answer = label.
a

# credit: patent US20250099420A1
